Reported TGI by item:
System: ACHN renal
ASSAY OVERVIEW: NCI tumour cell line growth inhibition, 48 h

Reference set (3 entries):
[
  {
    "COMPOUND": "c1cc[c]([Sn]([O]c2cccc3cccnc23)([O]c2cccc3cccnc23)[c]2ccccc2)cc1",
    "RECORDED VALUE": "0.396 µM"
  },
  {
    "COMPOUND": "C/C(=N\\NC(N)=S)c1sc(-n2nc(-c3ccccc3)cc2-c2ccccc2)nc1C",
    "RECORDED VALUE": "> 100 µM"
  },
  {
    "COMPOUND": "CCOC(=O)c1nc2cc(C(F)(F)F)ccc2nc1Oc1ccc(F)cc1",
    "RECORDED VALUE": "> 100 µM"
  }
]

Requested read-out: TGI. Entry: O=C(/C(=N/Nc1ccccc1)c1ccc([N+](=O)[O-])cc1)c1ccc([N+](=O)[O-])cc1 > 100 µM

Requested read-out: TGI. Entry: CC(=O)NC1(C)C(C)C2CC1C(C)C2(C)C (configuration not stated) > 100 µM

Requested read-out: TGI. Entry: NS(=O)(=O)c1nnc(NS(=O)(=O)c2ccc([N+](=O)[O-])cc2)s1 > 100 µM

Requested read-out: TGI. Entry: Cc1ccc(O)c(NC2=C(Cl)C(=O)N(Cc3ccccc3)C2=O)c1 > 100 µM

Requested read-out: TGI. Entry: COc1cc(-c2nccc3cc4c(cc23)OCO4)cc(OC)c1OC > 100 µM

Requested read-out: TGI. Entry: COC(=O)N/N=C(\C)C(CN(C)C)C(c1ccccc1)c1c(O)c2ccccc2oc1=O (configuration not stated) > 100 µM

---

Reported TGI by item:
Tested on: CCRF-CEM leukemia
ASSAY OVERVIEW: NCI tumour cell line growth inhibition, 48 h
Please state the figure in µM; there is no need to write the unit.

[
  {
    "MOLECULE": "CC12OC(C(=O)C13CCC3)C1C(=O)c3ccc4c(ccc5ccccc54)c3C(=O)C12 (centres undefined)",
    "TGI [µM]": 15.2
  }
]

Requested read-out: TGI. Entry: COc1cccc2nc3c(C(=O)NCCN(C)C)cccc3nc12 25.7

Requested read-out: TGI. Entry: CN1CCN(CCCOc2cccc3nc(Nc4ccc(F)c(F)c4)ccc23)CC1 8.06

Requested read-out: TGI. Entry: CC(C)=C1CCC(CN2CCOCC2)C1=O (centres undefined) 7.9

---

Reported TGI by item:
Test system: HCC-2998 colon
ASSAY OVERVIEW: NCI tumour cell line growth inhibition, 48 h

Reference set (5 entries):
[
  {
    "MOLECULE": "CCCCCCCCCC(=O)NC(Cc1ccc(O)cc1)C(=O)NCCCNCCCCNCCCNC(=O)[C@@H](N)CCCN=C(N)N (some centres not stated)",
    "TGI": "> 100 µM"
  },
  {
    "MOLECULE": "CC/C(Cc1ccccc1)=C(/c1ccc(O)cc1)c1ccc(OCCN2CCCC2)cc1",
    "TGI": "2.98 µM"
  },
  {
    "MOLECULE": "COc1ccc(-c2n[nH]nc2-c2cc(OC)c3c(c2)OCO3)cc1",
    "TGI": "2.4 µM"
  },
  {
    "MOLECULE": "CCc1nc2cc(/C=C/C(=O)NO)ccc2c(=O)n1CCc1ccc(OC)cc1",
    "TGI": "62.1 µM"
  },
  {
    "MOLECULE": "CCc1nn2ncccc2c1-c1ccnc(NC2CC2)n1",
    "TGI": "> 25 µM"
  }
]

Requested read-out: TGI. Entry: CCOC(=O)C#Cc1c(C(=O)OCC)nnn1[C@@H]1O[C@H](CO)[C@H]2OC3(CCCCC3)O[C@H]21 32.8 µM

Requested read-out: TGI. Entry: N#Cc1c(-c2ccccc2)cc(Nc2ccc(Cl)cc2)n2c1nc1ccccc12 > 100 µM

Requested read-out: TGI. Entry: COc1ccc2c(c1)[n+](=O)c(C(=O)CC(=O)C(=O)Nc1cccc(C)c1C)c(C)n2[O-] > 100 µM

Requested read-out: TGI. Entry: Cc1ccc(SCC(OCn2cnc3c(Cl)nc(N)nc32)[C@H](C)F)cc1 (some centres not stated) > 100 µM

---

Reported GI50 by item:
System: OVCAR-8 ovarian
ASSAY OVERVIEW: NCI tumour cell line growth inhibition, 48 h

[
  {
    "MOL SMILES": "COc1ccc2c(c1)O/C(=C\\c1cccc(OCC(=O)Nc3nc(C)c(C)s3)c1)C2=O",
    "GI50": "4700 nM"
  },
  {
    "MOL SMILES": "CCc1nc2cc(/C=C/C(=O)NO)ccc2c(=O)n1CCc1ccc(OC)cc1",
    "GI50": "2270 nM"
  },
  {
    "MOL SMILES": "Cc1nc(Sc2nc3ccc([N+](=O)[O-])cc3s2)sc1C",
    "GI50": "1790 nM"
  },
  {
    "MOL SMILES": "COc1ccc(-c2n[nH]nc2-c2cc(OC)c3c(c2)OCO3)cc1",
    "GI50": "35 nM"
  },
  {
    "MOL SMILES": "CC(C)(C)c1nc(-c2cccc(NS(=O)(=O)c3c(F)cccc3F)c2F)c(-c2ccnc(N)n2)s1",
    "GI50": "49100 nM"
  }
]

Turning now to a further compound:
Requested read-out: GI50. Entry: CC1=C(C#N)C(/C=C(\Cl)c2ccc(F)cc2)C(C#N)=C(C)N1 > 100000 nM

---

Test system: MCF7 breast
ASSAY OVERVIEW: NCI tumour cell line growth inhibition, 48 h; in the data active means GI50 below about 0.43 µM; inactive means the rest
Field 'call' accepts t (active), f (inactive)

// below: answered molecules
[
  {
    "MOLECULE": "CCOC(=O)C#Cc1c(C(=O)OCC)nnn1[C@@H]1O[C@H](CO)[C@H]2OC3(CCCCC3)O[C@H]21",
    "ASSIGNED CLASS": "f"
  },
  {
    "MOLECULE": "COc1ccc2c(c1)O/C(=C\\c1cccc(OCC(=O)Nc3nc(C)c(C)s3)c1)C2=O",
    "ASSIGNED CLASS": "f"
  },
  {
    "MOLECULE": "COc1cc(CN(c2ccc(C)cc2)C2OC(=O)c3ccccc32)cc(OC)c1OC (centres undefined)",
    "ASSIGNED CLASS": "t"
  },
  {
    "MOLECULE": "COc1ccc(-c2nc(N)c(C#N)c3c2CCOc2c-3ccc3ccccc23)cc1",
    "ASSIGNED CLASS": "f"
  },
  {
    "MOLECULE": "CC1=C(C#N)C(/C=C(\\Cl)c2ccc(F)cc2)C(C#N)=C(C)N1",
    "ASSIGNED CLASS": "f"
  },
  {
    "MOLECULE": "COc1cc(NC(C)CCCNC(C)C)c2ncccc2c1OC (centres undefined)",
    "ASSIGNED CLASS": "f"
  },
  {
    "MOLECULE": "NC(CSC(c1ccccc1)(c1ccccc1)c1ccc(F)cc1)C(=O)O (centres undefined)",
    "ASSIGNED CLASS": "t"
  },
  {
    "MOLECULE": "COc1ccc2[nH]c(C(=O)OCc3ccc4cccc(O)c4n3)cc2c1",
    "ASSIGNED CLASS": "f"
  },
  {
    "MOLECULE": "O=C(Oc1ccccc1)C(Br)C(Br)c1ccccc1 (centres undefined)",
    "ASSIGNED CLASS": "f"
  },
  {
    "MOLECULE": "COc1cccc(NC(=O)c2sc3nc4c(cc3c2N)C(O)CCC4)c1 (centres undefined)",
    "ASSIGNED CLASS": "t"
  }
]

Recorded test call requested for COc1ccc(-c2nsc3c2NC(=O)CC3c2cccc(Cl)c2)cc1 (centres undefined) f

Recorded test call requested for Oc1c(O)c(Cl)c(Cl)c(Cl)c1Cl f

Recorded test call requested for Nc1nc2c(ccc3ccccc32)s1 f

Recorded test call requested for O=C(CN(/C=C/C(=O)C(F)(F)F)c1ccccc1)c1ccc(Cl)cc1 f

---

Test system: MCF7 breast
ASSAY OVERVIEW: NCI tumour cell line growth inhibition, 48 h
Reported TGI by item:

Reference set (5 entries):
[
  {
    "COMPOUND": "C/C(=N\\NC(N)=S)c1sc(-n2nc(-c3ccccc3)cc2-c2ccccc2)nc1C",
    "RESULT TYPE": "TGI",
    "RECORDED VALUE": "> 100 µM"
  },
  {
    "COMPOUND": "COCOc1cc(OC)ccc1C/C(=N/O)C(=O)OC",
    "RESULT TYPE": "TGI",
    "RECORDED VALUE": "> 100 µM"
  },
  {
    "COMPOUND": "CCOc1cc(-c2nc3cc(F)ccc3s2)ccc1O",
    "RESULT TYPE": "TGI",
    "RECORDED VALUE": "23 µM"
  },
  {
    "COMPOUND": "CCOC(=O)/C=C(/C(=O)OCC)n1ccc(=O)n(Cc2cnnn2CCCCOC(C)=O)c1=O",
    "RESULT TYPE": "TGI",
    "RECORDED VALUE": "> 100 µM"
  },
  {
    "COMPOUND": "O=C1NC(=Nc2ccccc2Cl)N/C1=C\\c1ccc(Cl)cc1Cl",
    "RESULT TYPE": "TGI",
    "RECORDED VALUE": "> 100 µM"
  }
]

Turning now to a further compound:
Requested read-out: TGI. Entry: CC(=O)O[C@H](C[C@H](C(C)C)N(C)C(=O)[C@@H](NC(=O)[C@H]1CCCCN1C)C(C)C)c1cccc(C(=O)N[C@@H](Cc2ccccc2)C[C@H](C)C(=O)O)n1 > 25 µM
